System: Escherichia coli TOP10;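 also: peptides expressed intracellularly from a pBAD plasmid library in pooled LB shake-flask culture, induced with 0.3% L-arabinose, DNA abundance read by NGS, three biological replicates, DESeq2 with apeglm shrinkage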
Test: shrunken log2 fold change of peptide-encoding DNA abundance (4.5 h post-induction vs induction); higher = less antimicrobial activity (less host growth inhibition)
Conditions: time post-induction: 4.5 h; library: site-saturation at positions 5, 18, 19, 20
readoutLabel: shrunken log2 fold change

Ask | Form field - read-out: shrunken log2 fold change; system: Escherichia coli TOP10; submitted item: "RRIRSRPPRLPRPRPRPYVPPRP"
Reply | -0.784

Ask | Form field - read-out: shrunken log2 fold change; system: Escherichia coli TOP10; submitted item: "RRIRLRPPRLPRPRPRPSGRPRP"
Reply | 0.448

Ask | Form field - read-out: shrunken log2 fold change; system: Escherichia coli TOP10; submitted item: "RRIRPRPPRLPRPRPRPYCMPRP"
Reply | -0.505

Ask | Form field - read-out: shrunken log2 fold change; system: Escherichia coli TOP10; submitted item: "RRIRIRPPRLPRPRPRPFSCPRP"
Reply | -0.534

Ask | Form field - read-out: shrunken log2 fold change; system: Escherichia coli TOP10; submitted item: "RRIRPRPPRLPRPRPRPGERPRP"
Reply | 0.1

Ask | Form field - read-out: shrunken log2 fold change; system: Escherichia coli TOP10; submitted item: "RRIRVRPPRLPRPRPRPDAIPRP"
Reply | 0.286

Ask | Form field - read-out: shrunken log2 fold change; system: Escherichia coli TOP10; submitted item: "RRIRKRPPRLPRPRPRPFWDPRP"
Reply | -0.0842

Ask | Form field - read-out: shrunken log2 fold change; system: Escherichia coli TOP10; submitted item: "RRIRDRPPRLPRPRPRPRKEPRP"
Reply | -0.00977

Ask | Form field - read-out: shrunken log2 fold change; system: Escherichia coli TOP10; submitted item: "RRIRNRPPRLPRPRPRPPCNPRP"
Reply | -0.517

Ask | Form field - read-out: shrunken log2 fold change; system: Escherichia coli TOP10; submitted item: "RRIRNRPPRLPRPRPRPQIQPRP"
Reply | -0.214

Ask | Form field - read-out: shrunken log2 fold change; system: Escherichia coli TOP10; submitted item: "RRIRPRPPRLPRPRPRPFICPRP"
Reply | -0.276

Ask | Form field - read-out: shrunken log2 fold change; system: Escherichia coli TOP10; submitted item: "RRIRTRPPRLPRPRPRPNPFPRP"
Reply | -0.216

Ask | Form field - read-out: shrunken log2 fold change; system: Escherichia coli TOP10; submitted item: "RRIRERPPRLPRPRPRPRLMPRP"
Reply | -0.103

Ask | Form field - read-out: shrunken log2 fold change; system: Escherichia coli TOP10; submitted item: "RRIRGRPPRLPRPRPRPGAKPRP"
Reply | 0.924

Ask | Form field - read-out: shrunken log2 fold change; system: Escherichia coli TOP10; submitted item: "RRIRPRPPRLPRPRPRPFDNPRP"
Reply | -0.299

Ask | Form field - read-out: shrunken log2 fold change; system: Escherichia coli TOP10; submitted item: "RRIRMRPPRLPRPRPRPPLMPRP"
Reply | 1.34

Ask | Form field - read-out: shrunken log2 fold change; system: Escherichia coli TOP10; submitted item: "RRIRNRPPRLPRPRPRPRCVPRP"
Reply | -0.0119

Ask | Form field - read-out: shrunken log2 fold change; system: Escherichia coli TOP10; submitted item: "RRIRWRPPRLPRPRPRPMCFPRP"
Reply | 0.0876

Ask | Form field - read-out: shrunken log2 fold change; system: Escherichia coli TOP10; submitted item: "RRIRIRPPRLPRPRPRPQCFPRP"
Reply | 0.0204

Ask | Form field - read-out: shrunken log2 fold change; system: Escherichia coli TOP10; submitted item: "RRIRARPPRLPRPRPRPFNCPRP"
Reply | -0.357

Ask | Form field - read-out: shrunken log2 fold change; system: Escherichia coli TOP10; submitted item: "RRIRERPPRLPRPRPRPIFKPRP"
Reply | 0.138

Ask | Form field - read-out: shrunken log2 fold change; system: Escherichia coli TOP10; submitted item: "RRIRHRPPRLPRPRPRPVRRPRP"
Reply | 0.241

Ask | Form field - read-out: shrunken log2 fold change; system: Escherichia coli TOP10; submitted item: "RRIRDRPPRLPRPRPRPAGFPRP"
Reply | 0.0112

Ask | Form field - read-out: shrunken log2 fold change; system: Escherichia coli TOP10; submitted item: "RRIRERPPRLPRPRPRPSGSPRP"
Reply | 0.0459

Ask | Form field - read-out: shrunken log2 fold change; system: Escherichia coli TOP10; submitted item: "RRIRVRPPRLPRPRPRPSQWPRP"
Reply | 0.0963

Ask | Form field - read-out: shrunken log2 fold change; system: Escherichia coli TOP10; submitted item: "RRIRCRPPRLPRPRPRPTETPRP"
Reply | -0.0479

Ask | Form field - read-out: shrunken log2 fold change; system: Escherichia coli TOP10; submitted item: "RRIRSRPPRLPRPRPRPDKAPRP"
Reply | -0.111

Ask | Form field - read-out: shrunken log2 fold change; system: Escherichia coli TOP10; submitted item: "RRIRFRPPRLPRPRPRPDFHPRP"
Reply | -0.287

Ask | Form field - read-out: shrunken log2 fold change; system: Escherichia coli TOP10; submitted item: "RRIRGRPPRLPRPRPRPYKAPRP"
Reply | -0.354

Ask | Form field - read-out: shrunken log2 fold change; system: Escherichia coli TOP10; submitted item: "RRIRLRPPRLPRPRPRPGMDPRP"
Reply | 0.126

Ask | Form field - read-out: shrunken log2 fold change; system: Escherichia coli TOP10; submitted item: "RRIRKRPPRLPRPRPRPCMRPRP"
Reply | 0.0327

Ask | Form field - read-out: shrunken log2 fold change; system: Escherichia coli TOP10; submitted item: "RRIRWRPPRLPRPRPRPNRRPRP"
Reply | 0.191

Ask | Form field - read-out: shrunken log2 fold change; system: Escherichia coli TOP10; submitted item: "RRIRIRPPRLPRPRPRPWLIPRP"
Reply | 0.0717

Ask | Form field - read-out: shrunken log2 fold change; system: Escherichia coli TOP10; submitted item: "RRIRYRPPRLPRPRPRPDFIPRP"
Reply | -0.348

Ask | Form field - read-out: shrunken log2 fold change; system: Escherichia coli TOP10; submitted item: "RRIRQRPPRLPRPRPRPNMAPRP"
Reply | -0.173

Ask | Form field - read-out: shrunken log2 fold change; system: Escherichia coli TOP10; submitted item: "RRIRRRPPRLPRPRPRPSGQPRP"
Reply | 0.306

Ask | Form field - read-out: shrunken log2 fold change; system: Escherichia coli TOP10; submitted item: "RRIRARPPRLPRPRPRPDMAPRP"
Reply | 0.265

Ask | Form field - read-out: shrunken log2 fold change; system: Escherichia coli TOP10; submitted item: "RRIRFRPPRLPRPRPRPGVEPRP"
Reply | 0.112

Ask | Form field - read-out: shrunken log2 fold change; system: Escherichia coli TOP10; submitted item: "RRIRKRPPRLPRPRPRPVQAPRP"
Reply | 0.741

Ask | Form field - read-out: shrunken log2 fold change; system: Escherichia coli TOP10; submitted item: "RRIRSRPPRLPRPRPRPQCKPRP"
Reply | 0.0936

Ask | Form field - read-out: shrunken log2 fold change; system: Escherichia coli TOP10; submitted item: "RRIRRRPPRLPRPRPRPEEVPRP"
Reply | 0.0988

Ask | Form field - read-out: shrunken log2 fold change; system: Escherichia coli TOP10; submitted item: "RRIRYRPPRLPRPRPRPDVEPRP"
Reply | -0.00174

Ask | Form field - read-out: shrunken log2 fold change; system: Escherichia coli TOP10; submitted item: "RRIRSRPPRLPRPRPRPFLPPRP"
Reply | -0.305

Ask | Form field - read-out: shrunken log2 fold change; system: Escherichia coli TOP10; submitted item: "RRIRWRPPRLPRPRPRPMFEPRP"
Reply | -0.0796

Ask | Form field - read-out: shrunken log2 fold change; system: Escherichia coli TOP10; submitted item: "RRIRWRPPRLPRPRPRPHLAPRP"
Reply | 0.265

Ask | Form field - read-out: shrunken log2 fold change; system: Escherichia coli TOP10; submitted item: "RRIRPRPPRLPRPRPRPRHEPRP"
Reply | 0.0886

Ask | Form field - read-out: shrunken log2 fold change; system: Escherichia coli TOP10; submitted item: "RRIRTRPPRLPRPRPRPCLNPRP"
Reply | -0.000349

Ask | Form field - read-out: shrunken log2 fold change; system: Escherichia coli TOP10; submitted item: "RRIRARPPRLPRPRPRPLSRPRP"
Reply | 0.203

Ask | Form field - read-out: shrunken log2 fold change; system: Escherichia coli TOP10; submitted item: "RRIRQRPPRLPRPRPRPYHEPRP"
Reply | -0.288

Ask | Form field - read-out: shrunken log2 fold change; system: Escherichia coli TOP10; submitted item: "RRIRPRPPRLPRPRPRPSWFPRP"
Reply | -0.248

Ask | Form field - read-out: shrunken log2 fold change; system: Escherichia coli TOP10; submitted item: "RRIRMRPPRLPRPRPRPHQQPRP"
Reply | 0.107

Ask | Form field - read-out: shrunken log2 fold change; system: Escherichia coli TOP10; submitted item: "RRIRFRPPRLPRPRPRPPTQPRP"
Reply | 0.327

Ask | Form field - read-out: shrunken log2 fold change; system: Escherichia coli TOP10; submitted item: "RRIRCRPPRLPRPRPRPQDVPRP"
Reply | -0.176

Ask | Form field - read-out: shrunken log2 fold change; system: Escherichia coli TOP10; submitted item: "RRIRMRPPRLPRPRPRPPRPPRP"
Reply | 1.75

Ask | Form field - read-out: shrunken log2 fold change; system: Escherichia coli TOP10; submitted item: "RRIRDRPPRLPRPRPRPKNVPRP"
Reply | -0.0304

Ask | Form field - read-out: shrunken log2 fold change; system: Escherichia coli TOP10; submitted item: "RRIRLRPPRLPRPRPRPNNWPRP"
Reply | -0.275

Ask | Form field - read-out: shrunken log2 fold change; system: Escherichia coli TOP10; submitted item: "RRIRERPPRLPRPRPRPFRTPRP"
Reply | -0.11

Ask | Form field - read-out: shrunken log2 fold change; system: Escherichia coli TOP10; submitted item: "RRIRQRPPRLPRPRPRPLPGPRP"
Reply | 0.0661

Ask | Form field - read-out: shrunken log2 fold change; system: Escherichia coli TOP10; submitted item: "RRIRCRPPRLPRPRPRPYGMPRP"
Reply | -0.0815

Ask | Form field - read-out: shrunken log2 fold change; system: Escherichia coli TOP10; submitted item: "RRIRERPPRLPRPRPRPWDTPRP"
Reply | -0.623

Ask | Form field - read-out: shrunken log2 fold change; system: Escherichia coli TOP10; submitted item: "RRIRRRPPRLPRPRPRPWMFPRP"
Reply | 0.0935

Ask | Form field - read-out: shrunken log2 fold change; system: Escherichia coli TOP10; submitted item: "RRIRGRPPRLPRPRPRPEIMPRP"
Reply | 1.33

Ask | Form field - read-out: shrunken log2 fold change; system: Escherichia coli TOP10; submitted item: "RRIRRRPPRLPRPRPRPDLFPRP"
Reply | 0.41
